System: PAK4;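 note: KINOMEscan scanMAX binding as percent activity remaining versus control; lower means stronger binding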
Settings: Compound Concentration (nM):1000
Measure Name: Percent Control (%)
Your answer should be a plain number; it is taken to be in %.

Q: Return Percent Control for the following compound: CN(C)c1cc2c(Nc3ccc4c(cnn4Cc4ccccc4)c3)ncnc2cn1 [GW282974X]
A: 98

Q: Return Percent Control for the following compound: COc1cc2ncnc(Nc3ccc4c(cnn4Cc4ccccc4)c3)c2cc1OC.Cl [GW282449A]
A: 100

Q: Return Percent Control for the following compound: Cl.O=C(Nc1ccc(Oc2ccc3[nH]c(NC(=O)c4ccco4)nc3c2)cc1)Nc1cc(C(F)(F)F)ccc1F [GW683134A]
A: 100

Q: Return Percent Control for the following compound: COc1ccc2cc(-c3c(-c4ccncc4)nc(-c4ccc(S(C)(=O)=O)cc4C)n3C)ccc2c1 [SB-633825]
A: 81

Q: Return Percent Control for the following compound: CN(C)CCNC(=O)Nc1ccc(N(C)c2ccnc(Nc3ccc(CS(C)(=O)=O)cc3)n2)cc1.Cl [GW830900A]
A: 71

Q: Return Percent Control for the following compound: CCS(=O)(=O)c1ccc(OC)c(Nc2ncc(-c3cccc(OC)c3)o2)c1 [GW580509X]
A: 100

Q: Return Percent Control for the following compound: COc1cccc(-c2c[nH]c3c(N/N=C/c4ccncc4)ncnc23)c1 [GW814408X]
A: 100

Q: Return Percent Control for the following compound: NS(=O)(=O)c1ccc(N/N=C2\C(=O)Nc3ccc(-c4cnco4)cc32)cc1 [GW276655]
A: 95

Q: Return Percent Control for the following compound: COc1cc(/C=N/Nc2ncnc3[nH]ncc23)ccc1O [GW578748X]
A: 100

Q: Return Percent Control for the following compound: Cc1cc(O)cc(C)c1/C=C/c1cncc(C(N)=O)c1 [GW435821X]
A: 100

Q: Return Percent Control for the following compound: NS(=O)(=O)c1ccc(N/N=C2\C(=O)Nc3ccc(Cl)cc32)cc1 [GW280670X]
A: 100

Q: Return Percent Control for the following compound: COc1cc(C=NNc2ncnc3c2cnn3-c2ccccc2)ccc1O [GW513184X]
A: 100

Q: Return Percent Control for the following compound: CCS(=O)(=O)c1ccc(OC)c(Nc2ncc(-c3cccc(F)c3)o2)c1 [GW621970X]
A: 100

Q: Return Percent Control for the following compound: Cl.O=C(Nc1ccc(Oc2ccc3[nH]c(NC(=O)c4ccccc4)nc3c2)cc1)Nc1cc(C(F)(F)F)ccc1F [GW709042A]
A: 100

Q: Return Percent Control for the following compound: O=C(Nc1n[nH]c2nc(-c3ccc(O)cc3)c(Br)cc12)C1CC1 [SB-725317]
A: 100

Q: Return Percent Control for the following compound: C/C(Nc1ccc(S(N)(=O)=O)cc1)=C1/C(=O)Nc2ccccc21 [GW335962X]
A: 89

Q: Return Percent Control for the following compound: COc1cc2ncn(-c3cc(O[C@H](C)c4ccccc4Cl)c(C(N)=O)s3)c2cc1OC [GSK237701A]
A: 93

Q: Return Percent Control for the following compound: O=C1Nc2ccc(C(=O)c3ccco3)cc2C1=Cc1cc(Cl)c(O)c(Cl)c1 [GW406108X]
A: 100

Q: Return Percent Control for the following compound: CC(C)COC(=O)c1ccc2c(c1)/C(=C/Nc1ccc(S(N)(=O)=O)cc1)C(=O)N2 [GW416981X]
A: 100

Q: Return Percent Control for the following compound: COc1cccc(-n2ncc3c(N/N=C/c4ccncc4)ncnc32)c1 [GW784752X]
A: 100

Q: Return Percent Control for the following compound: NS(=O)(=O)c1ccc(N/N=C2\C(=O)Nc3ccc(C(=O)NCCc4c[nH]cn4)cc32)cc1 [GW300660X]
A: 100

Q: Return Percent Control for the following compound: Cl.c1ccc(Cc2nc3ccc(Nc4ncnc5ccccc45)cc3[nH]2)cc1 [GR269666A]
A: 100

Q: Return Percent Control for the following compound: Cl.O=S1CCN(Cc2ccc(-c3ccc4ncnc(Nc5ccc(OCc6ccccc6)c(F)c5)c4c3)o2)CC1 [GW576924A]
A: 100

Q: Return Percent Control for the following compound: COC(=O)Nc1nc2ccc(Oc3ccc(NC(=O)Nc4cc(C(F)(F)F)ccc4F)cc3)cc2s1.Cl [GW693917A]
A: 100

Q: Return Percent Control for the following compound: COc1cc(N2CCN(C(C)C)CC2)ccc1Nc1nc(Nc2ccc(F)cc2C(=O)NC[C@@H](O)CO)c2cc[nH]c2n1 [GSK1392956A]
A: 100

Q: Return Percent Control for the following compound: NS(=O)(=O)c1ccc(N/N=C2\C(=O)Nc3ccc(C(=O)NCc4ccncc4)cc32)cc1 [GW300657X]
A: 100

Q: Return Percent Control for the following compound: CC1=C(C(=O)Nc2ccc3[nH]ncc3c2)C(c2ccc3ccccc3c2)CC(=O)N1 (stereo not shown) [GSK270822A]
A: 85

Q: Return Percent Control for the following compound: COc1ccc(COc2ccc(Cc3cnc(N)nc3N)cc2OC)cc1 [GW632580X]
A: 100
